These measurements were taken from patent US20260176282A1.

# SYSTEM TESTED: CDK2/Cyclin E1 (Homo sapiens, UniProt P24941)
# PROTOCOL TEXT: CDK2/Cyclin E1 TR-FRET biochemical assay (1 mM ATP)
# STATED CONDITIONS: 90 minutes reaction
Recorded measurements of log10 of IC50, one per entry
VALUE KIND: log10 of IC50 (log10 of the value in nM)

COMPOUND	log10 of IC50
O=C(NC1COC1)O[C@H]1CC[C@@H](c2cc(Nc3ccc4c(c3F)CS(=O)(=O)C4)n[nH]2)C1 (relative stereo) [Example 20]	1.49
CC1(NC(=O)OC2CCC(c3cc(Nc4ccc5c(c4F)CS(=O)(=O)C5)n[nH]3)C2)COC1 (single isomer, unassigned) [Example 15b]	0.30
CC(C)NC(=O)O[C@H]1CC[C@@H](c2cc(Nc3ccc4c(c3F)CSC4)n[nH]2)C1 (relative stereo) [Example 33]	1.34
CC1(NC(=O)OC2CCC(c3cc(Nc4ccc5c(c4F)CS(=O)(=O)C5)n[nH]3)C2)COC1 (single isomer, unassigned) [Example 15a]	0.28
CN(C(=O)O[C@H]1CC[C@@H](c2cc(Nc3ccc4c(c3F)CS(=O)(=O)C4)n[nH]2)C1)C1CCOC1 (relative stereo) [Example 21]	1.38
CCNC(=O)OC1CCC(c2cc(Nc3ccc4c(c3F)CS(=O)(=O)C4)n[nH]2)C1 (single isomer, unassigned) [Example 18a]	0.72

###

# SYSTEM TESTED: CDK1/Cyclin B1 (Homo sapiens)
# PROTOCOL TEXT: CDK1/Cyclin B1 TR-FRET biochemical assay (1 mM ATP)
# STATED CONDITIONS: 90 minutes reaction
# Description: Compounds disclosed herein were tested for inhibition of CDK2/Cyclin E1 or CDK1/Cyclin B1 kinase in an assay based on the time-resolved fluorescence-resonance energy transfer (TR-FRET) methodology. […] Plates were incubated at room temperature for 60 minutes, and the TR-FRET signals (ex337 nm, em665 nm/620 nm) were recorded on a PHERAstar FSX plate reader (BMG Labtech). […]
pIC50: −log10 of the molar value.
Recorded measurements of pIC50, one per entry

COMPOUND	OPERATOR SYMBOL	pIC50
O=C(N[C@H]1CC[C@@H](O)CC1)OC1CCC(c2cc(Nc3ccc4c(c3F)CS(=O)(=O)C4)n[nH]2)C1 (stereo partly shown)	=	6.08
O=C(NC1CCOC1)OC1CCC(c2cc(Nc3ccc4c(c3F)CS(=O)(=O)C4)n[nH]2)C1 (single isomer, unassigned) [Example 24a]	=	5.33
C[C@]1(O)CC[C@H](NC(=O)OC2CCC(c3cc(Nc4ccc5c(c4F)CS(=O)(=O)C5)n[nH]3)C2)CC1 (stereo partly shown)	=	5.93
CC(C)NC(=O)O[C@H]1CC[C@@H](c2cc(Nc3cc4c(cc3F)CSC4)n[nH]2)C1 (relative stereo)	<	5.00

###

# SYSTEM TESTED: CDK1/Cyclin B1 (Homo sapiens, UniProt P06493)
# Sequence (P06493 whole entry): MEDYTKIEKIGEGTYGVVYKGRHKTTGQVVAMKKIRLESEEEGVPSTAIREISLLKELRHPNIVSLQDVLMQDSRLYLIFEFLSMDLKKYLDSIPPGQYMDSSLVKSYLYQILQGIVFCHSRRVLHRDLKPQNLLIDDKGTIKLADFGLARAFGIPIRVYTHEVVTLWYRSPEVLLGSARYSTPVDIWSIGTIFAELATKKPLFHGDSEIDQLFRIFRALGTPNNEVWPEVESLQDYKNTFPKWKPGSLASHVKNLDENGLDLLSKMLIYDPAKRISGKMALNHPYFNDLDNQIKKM
# Sequence (P14635 whole entry partner): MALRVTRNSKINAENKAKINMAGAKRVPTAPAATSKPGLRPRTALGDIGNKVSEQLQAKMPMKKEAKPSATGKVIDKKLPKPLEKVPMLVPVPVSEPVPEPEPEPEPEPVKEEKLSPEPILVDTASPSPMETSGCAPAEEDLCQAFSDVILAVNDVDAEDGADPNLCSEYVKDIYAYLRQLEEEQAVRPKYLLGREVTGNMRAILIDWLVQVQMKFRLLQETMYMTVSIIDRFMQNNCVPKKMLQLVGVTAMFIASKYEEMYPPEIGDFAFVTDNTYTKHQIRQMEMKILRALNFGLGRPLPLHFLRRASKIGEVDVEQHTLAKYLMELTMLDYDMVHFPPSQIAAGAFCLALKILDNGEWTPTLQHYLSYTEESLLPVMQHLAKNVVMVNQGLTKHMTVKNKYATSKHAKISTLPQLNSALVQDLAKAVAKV
# PROTOCOL TEXT: CDK1/Cyclin B1 TR-FRET biochemical assay (0.015 mM ATP)
# STATED CONDITIONS: 120 minutes reaction
# Experimental: Compounds disclosed herein were tested for inhibition of CDK2/Cyclin E1 or CDK1/Cyclin B1 kinase in an assay based on the time-resolved fluorescence-resonance energy transfer (TR-FRET) methodology. […] Plates were incubated at room temperature for 60 minutes, and the TR-FRET signals (ex337 nm, em665 nm/620 nm) were recorded on a PHERAstar FSX plate reader (BMG Labtech). […]
pIC50: −log10 of the molar value.
Recorded measurements of pIC50, one per entry
VALUE KIND: pIC50

MOLECULE	VALUE KIND	RESULT VALUE
CCCNC(=O)OC1CCC(c2cc(Nc3ccc4c(c3F)CS(=O)(=O)C4)n[nH]2)C1 (single isomer, unassigned) [Example 9b]	pIC50	7.92
CC(C)NC(=O)OC1CCC(c2cc(Nc3ccc4c(c3F)S(=O)(=O)CC4)n[nH]2)C1 (single isomer, unassigned) [Example 3a]	pIC50	6.88
CCCNC(=O)OC1CCC(c2cc(Nc3ccc4c(c3F)CS(=O)(=O)C4)n[nH]2)C1 (single isomer, unassigned) [Example 9a]	pIC50	7.30
COCC(C)(C)NC(=O)O[C@H]1CC[C@@H](c2cc(Nc3ccc4c(c3F)CS(=O)(=O)C4)n[nH]2)C1 (relative stereo)	pIC50	8.00
CC(C)NC(=O)O[C@@H]1CC[C@H](c2cc(Nc3ccc4c(c3F)CS(=O)(=O)C4)n[nH]2)C1 (single isomer, unassigned)	pIC50	7.52
CC1(NC(=O)O[C@H]2CC[C@@H](c3cc(Nc4ccc5c(c4F)S(=O)(=O)CC5)n[nH]3)C2)CC1 (relative stereo)	pIC50	7.70

###

Recorded measurements of IC50, one per entry
# SYSTEM TESTED: CDK1/Cyclin B1 (Homo sapiens, UniProt P06493)
# PROTOCOL TEXT: CDK1/Cyclin B1 TR-FRET biochemical assay (1 mM ATP)
# STATED CONDITIONS: 90 minutes reaction

MOLECULE	IC50 (nM)
Cc1cc2c(cc1Nc1cc([C@@H]3CC[C@H](OC(=O)NC(C)C)C3)[nH]n1)CS(=O)(=O)C2 (relative stereo) [Example 28]	2900
O=C(NC1CCOC1)OC1CCC(c2cc(Nc3ccc4c(c3F)CS(=O)(=O)C4)n[nH]2)C1 (single isomer, unassigned) [Example 24b]	7870
CC1(NC(=O)OC2CCC(c3cc(Nc4ccc5c(c4F)CS(=O)(=O)C5)n[nH]3)C2)CCOC1 (single isomer, unassigned) [Example 13b]	353

###

# SYSTEM TESTED: CDK2/Cyclin E1 (Homo sapiens)
# PROTOCOL TEXT: CDK2/Cyclin E1 TR-FRET biochemical assay (0.060 mM ATP)
# STATED CONDITIONS: 120 minutes reaction
pIC50: −log10 of the molar value.
// label = Condition met if pIC50 is not less than 9, otherwise Condition not met

COMPOUND	ASSIGNED CLASS
CC(C)NC(=O)O[C@H]1CC[C@@H](c2cc(Nc3cc4c(cc3F)S(=O)(=O)CC4)n[nH]2)C1 (relative stereo)	Condition not met
CC[C@H](C)NC(=O)OC1CCC(c2cc(Nc3ccc4c(c3F)CS(=O)(=O)C4)n[nH]2)C1 (stereo in doubt)	Condition met
CC(C)NC(=O)OC1CCC(c2cc(Nc3ccc4c(c3F)CCS4(=O)=O)n[nH]2)C1 (single isomer, unassigned) [Example 2a]	Condition not met
CC(C)NC(=O)O[C@H]1CC[C@@H](c2cc(Nc3ccc4c(c3F)CS(=O)(=O)C4)n[nH]2)C1 (relative stereo)	Condition met
CCCNC(=O)O[C@H]1CC[C@@H](c2cc(Nc3ccc4c(c3F)S(=O)(=O)CC4)n[nH]2)C1 (relative stereo)	Condition not met
CC[C@H](C)NC(=O)OC1CCC(c2cc(Nc3ccc4c(c3F)S(=O)(=O)CC4)n[nH]2)C1 (stereo in doubt)	Condition not met
CC1(NC(=O)O[C@H]2CC[C@@H](c3cc(Nc4ccc5c(c4F)CS(=O)(=O)C5)n[nH]3)C2)CC1 (relative stereo)	Condition met
CC(C)NC(=O)OC1CCC(c2cc(Nc3ccc4c(c3F)S(=O)(=O)CC4)n[nH]2)C1 (single isomer, unassigned) [Example 3b]	Condition not met
CC(C)NC(=O)OC1CCC(c2cc(Nc3ccc4c(c3F)S(=O)(=O)CC4)n[nH]2)C1 (single isomer, unassigned) [Example 3a]	Condition not met

###

# Test system: HEK-293 cells
# PROTOCOL TEXT: HEK-293 cell cytotoxicity detection (CellTiter-Glo)
# Assay type: cell-based
# STATED CONDITIONS: incubation of 72 h, CellTiter-Glo luminescence, read-out: HEK293 IC50

MOLECULE	UNITS	OPERATOR SYMBOL	IC50
CCNC(=O)OC1CCC(c2cc(Nc3ccc4c(c3F)CS(=O)(=O)C4)n[nH]2)C1 (single isomer, unassigned) [Example 18a]	µM	>	10
CC1(NC(=O)OC2CCC(c3cc(Nc4ccc5c(c4F)CS(=O)(=O)C5)n[nH]3)C2)CCOC1 (single isomer, unassigned) [Example 13c]	µM	=	1.72
O=C(NC1CCOC1)OC1CCC(c2cc(Nc3ccc4c(c3F)CS(=O)(=O)C4)n[nH]2)C1 (single isomer, unassigned) [Example 24b]	µM	>	10
CC(C)NC(=O)OC1CCC(c2cc(Nc3ccc4c(c3F)CCS4(=O)=O)n[nH]2)C1 (single isomer, unassigned)	µM	>	10
CC(C)NC(=O)OC1CCC(c2cc(Nc3ccc4c(c3F)S(=O)(=O)CC4)n[nH]2)C1 (single isomer, unassigned) [Example 3b]	µM	=	0.677
CC1(NC(=O)OC2CCC(c3cc(Nc4ccc5c(c4F)CS(=O)(=O)C5)n[nH]3)C2)CCOC1 (single isomer, unassigned) [Example 13a]	µM	=	2.15
